Molecular target: 3R Shaker K channel (Drosophila melanogaster, UniProt P08510, A359R/M356R)
Sequence (P08510 whole entry M356R/A359R): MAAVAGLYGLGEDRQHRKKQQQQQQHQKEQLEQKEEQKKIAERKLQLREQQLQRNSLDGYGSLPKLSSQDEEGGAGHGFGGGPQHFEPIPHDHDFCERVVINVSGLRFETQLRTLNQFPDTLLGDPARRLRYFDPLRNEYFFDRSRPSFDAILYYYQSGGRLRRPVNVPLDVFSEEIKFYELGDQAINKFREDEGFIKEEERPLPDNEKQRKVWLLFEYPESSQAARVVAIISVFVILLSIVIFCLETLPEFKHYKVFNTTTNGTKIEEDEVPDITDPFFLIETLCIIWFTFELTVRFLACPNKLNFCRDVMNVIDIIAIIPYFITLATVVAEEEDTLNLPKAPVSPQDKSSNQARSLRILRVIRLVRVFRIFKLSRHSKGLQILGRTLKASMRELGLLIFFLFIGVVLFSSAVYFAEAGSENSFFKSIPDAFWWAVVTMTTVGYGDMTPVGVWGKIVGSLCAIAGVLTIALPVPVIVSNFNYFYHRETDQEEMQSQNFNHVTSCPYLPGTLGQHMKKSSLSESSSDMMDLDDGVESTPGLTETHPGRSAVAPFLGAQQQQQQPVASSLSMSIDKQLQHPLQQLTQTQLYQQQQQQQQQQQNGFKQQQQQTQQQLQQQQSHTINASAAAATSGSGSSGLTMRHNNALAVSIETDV
Assay: physchem
Format: cell-based
Details: Table 1; 100 μM, pH 7.4, Xenopus oocytes
Measured quantity: G(V) shift (mV)
Quick note: give the figure in mV, leave out the unit.

[[record]]
molecule = "CO/N=C1\\CC2[C@](C)(C(=O)O)CCC[C@]2(C)c2cc(C3CC3)c(C(C)C)cc21 (some centres unmarked)"
result_value = "−32.3"

[[record]]
molecule = "CC(C)c1cc(Cl)c2c(c1)CCC1C(C)(C(=O)O)CCCC21C (centres unmarked)"
result_value = "−2.7"


Please report G(V) shift for the following molecule: C=Cc1cc2c(cc1C(C)C)CCC1[C@](C)(C(=O)O)CCC[C@]21C (some centres unmarked)
−13.2

Please report G(V) shift for the following molecule: CC=Cc1cc2c(cc1C(C)C)CCC1[C@](C)(C(=O)O)CCC[C@]21C (some centres unmarked)
−0.2

Please report G(V) shift for the following molecule: C=CCON=C1CC2C(C)(C(=O)O)CCCC2(C)c2c(Cl)cc(C(C)C)c(Cl)c21 (centres unmarked)
−13.3

Please report G(V) shift for the following molecule: CC(C)c1c(Cl)c(Cl)c2c(c1Cl)C(=NO)CC1C(C)(C(=O)O)CCCC21C (centres unmarked)
4.7

Please report G(V) shift for the following molecule: CC(C)c1ccc2c(c1Cl)C(=O)CC1[C@](C)(C(=O)O)CCC[C@]21C (some centres unmarked)
−4.9

* * *

Target: 3R Shaker K channel (Drosophila melanogaster, UniProt P08510, A359R/M356R)
Assay: physchem
Type: cell-based
Conditions: Table 1; 100 μM, pH 7.4, Xenopus oocytes
Under this convention, 1 (yes) denotes G(V) shift strictly below -9 mV and 0 (no) denotes G(V) shift at or above -9 mV.

[[record]]
compound = "CON=C1CC2C(C)(C(=O)O)CCCC2(C)c2c(Cl)c(Cl)c(C(C)C)c(Cl)c21 (stereo not shown)"
label_class = "1 (yes)"

[[record]]
compound = "CO/N=C1\\CC2[C@](C)(C(=O)O)CCC[C@]2(C)c2cc(I)c(C(C)C)cc21 (stereo partly shown)"
label_class = "1 (yes)"


Does this compound meet the criterion G(V) shift < -9 mV? CC(C)c1ccc2c(c1C1CC1)CC[C@H]1[C@](C)(C(=O)O)CCC[C@]21C
1 (yes)

Does this compound meet the criterion G(V) shift < -9 mV? CC(C)c1ccc2c(c1Cl)CCC1[C@](C)(C(=O)O)CCC[C@]21C (stereo partly shown)
1 (yes)

* * *

Biological target: 3R Shaker K channel (Drosophila melanogaster, UniProt P08510, A359R/M356R)
Experiment: physchem
Type: cell-based
Conditions: Table 1; 100 μM, pH 7.4, Xenopus oocytes
Measured quantity: G(V) shift (mV)
Quick note: give the figure in mV, leave out the unit.

Solved cases (10 shown):
[[record]]
compound = "CC(C)c1c(Cl)cc2c(c1Cl)CC[C@H]1[C@](C)(C(=O)O)CCC[C@]21C"
target_or_system = "3R Shaker K channel (Drosophila melanogaster, UniProt P08510, A359R/M356R)"
units_symbol = "mV"
result_value = "−5.9"

[[record]]
compound = "CC(C)c1cc2c(cc1Br)C1(C)CCCC(C)(C(=O)O)C1CC2=O (stereo not drawn)"
target_or_system = "3R Shaker K channel (Drosophila melanogaster, UniProt P08510, A359R/M356R)"
units_symbol = "mV"
result_value = "−7.0"

[[record]]
compound = "C=CCON=C1CC2C(C)(C(=O)O)CCCC2(C)c2ccc(C(C)C)c(Br)c21 (stereo not drawn)"
target_or_system = "3R Shaker K channel (Drosophila melanogaster, UniProt P08510, A359R/M356R)"
units_symbol = "mV"
result_value = "−8.6"

[[record]]
compound = "CC(C)c1ccc2c(c1-c1ccccc1)CC[C@H]1[C@](C)(C(=O)O)CCC[C@]21C"
target_or_system = "3R Shaker K channel (Drosophila melanogaster, UniProt P08510, A359R/M356R)"
units_symbol = "mV"
result_value = "−0.4"

[[record]]
compound = "CO/N=C1\\CC2[C@](C)(C(=O)O)CCC[C@]2(C)c2cc(Cl)c(C(C)C)cc21 (stereo partly drawn)"
target_or_system = "3R Shaker K channel (Drosophila melanogaster, UniProt P08510, A359R/M356R)"
units_symbol = "mV"
result_value = "−28.1"

[[record]]
compound = "CON=C1CC2C(C)(C(=O)O)CCCC2(C)c2ccc(C(C)C)c(F)c21 (stereo not drawn)"
target_or_system = "3R Shaker K channel (Drosophila melanogaster, UniProt P08510, A359R/M356R)"
units_symbol = "mV"
result_value = "−9.0"

[[record]]
compound = "C=CCO/N=C1\\C[C@H]2[C@](C)(C(=O)O)CCC[C@]2(C)c2c(Cl)cc(C(C)C)cc21"
target_or_system = "3R Shaker K channel (Drosophila melanogaster, UniProt P08510, A359R/M356R)"
units_symbol = "mV"
result_value = "−12.9"

[[record]]
compound = "C[C@@]1(C(=O)O)CCC[C@]2(C)c3cc(Cl)c(Cl)c(Cl)c3CCC12 (stereo partly drawn)"
target_or_system = "3R Shaker K channel (Drosophila melanogaster, UniProt P08510, A359R/M356R)"
units_symbol = "mV"
result_value = "−31.6"

[[record]]
compound = "C=CCON=C1CC2C(C)(C(=O)O)CCCC2(C)c2ccc(C(C)C)c(F)c21 (stereo not drawn)"
target_or_system = "3R Shaker K channel (Drosophila melanogaster, UniProt P08510, A359R/M356R)"
units_symbol = "mV"
result_value = "−9.2"

[[record]]
compound = "C=CCO/N=C1\\CC2[C@](C)(C(=O)O)CCC[C@]2(C)c2cc(Br)c(C(C)C)cc21 (stereo partly drawn)"
target_or_system = "3R Shaker K channel (Drosophila melanogaster, UniProt P08510, A359R/M356R)"
units_symbol = "mV"
result_value = "−24.5"


Please report G(V) shift for the following compound: CC(C)c1cc2c(cc1Br)[C@@]1(C)CCC[C@@](C)(C(=O)O)C1CC2 (stereo partly drawn)
−12.5

Please report G(V) shift for the following compound: C=CCO/N=C1\CC2[C@](C)(C(=O)O)CCC[C@]2(C)c2cc(C3CC3)c(C(C)C)cc21 (stereo partly drawn)
−26.3

Please report G(V) shift for the following compound: CC(C)c1ccc2c(c1)C(=NOCc1ccccc1)CC1C(C)(C(=O)O)CCCC21C (stereo not drawn)
−9.5

Just for reference, patent US20180193294A1 is where these values come from.
